experiment: Pharmacokinetic parameter Cmax was measured after administration into monkey at 3 mg/kg; assay type: ADME, organism-based; design: dose 3 mg/kg; conditions: cercopithecidae, in vivo, read-out: AUC
READOUT_TYPE: Cmax (ng/mL)
Provide only the numeric value, understood in ng/mL.

Input O=C(NCc1ccc(Cc2c[nH]cn2)cc1)Nc1cc(Cl)cc(Cl)c1 . Output Cmax: 1700

* * *

pKi: recorded values
biological target: Histamine H3 receptor (Cavia porcellus)
Sequence (Q9JI35 whole entry): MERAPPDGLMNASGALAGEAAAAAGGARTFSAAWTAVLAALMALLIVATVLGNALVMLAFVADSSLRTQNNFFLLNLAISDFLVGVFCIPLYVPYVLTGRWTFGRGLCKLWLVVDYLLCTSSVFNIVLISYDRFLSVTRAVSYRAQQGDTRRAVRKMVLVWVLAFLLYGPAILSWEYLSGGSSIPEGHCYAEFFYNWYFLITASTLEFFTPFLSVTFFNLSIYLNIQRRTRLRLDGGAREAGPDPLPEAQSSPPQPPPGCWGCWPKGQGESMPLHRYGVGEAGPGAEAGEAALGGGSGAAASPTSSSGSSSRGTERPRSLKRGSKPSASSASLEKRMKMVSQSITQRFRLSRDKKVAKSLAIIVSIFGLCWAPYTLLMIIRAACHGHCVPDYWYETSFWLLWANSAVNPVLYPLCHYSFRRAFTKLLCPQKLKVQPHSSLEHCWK
Give only the number. pKi is defined as minus log10 of concentration in molar units.

Use these answered entries as a reference point.
{"STRUCTURE_AS_SMILES": "O=C(NCc1ccc(Cc2c[nH]cn2)cc1)Nc1cc(Cl)nc(Cl)c1", "pKi": 8.52}
{"STRUCTURE_AS_SMILES": "O=C(NCc1ccc(Cc2c[nH]cn2)cc1)NCc1cc(C(F)(F)F)cc(C(F)(F)F)c1", "pKi": 7.05}
{"STRUCTURE_AS_SMILES": "O=C(NCCc1ccccc1Cl)NCc1ccc(Cc2c[nH]cn2)cc1", "pKi": 6.37}
{"STRUCTURE_AS_SMILES": "O=C(NCc1ccc(Cc2c[nH]cn2)cc1)Nc1cccnc1", "pKi": 6.57}
{"STRUCTURE_AS_SMILES": "O=C(Nc1ccc(Cl)cc1)OCc1ccc(Cc2c[nH]cn2)cc1", "pKi": 7.60}

Now let's try a different one.
Let me check: O=C(Nc1ccccc1)OCc1ccc(Cc2c[nH]cn2)cc1 , system Histamine H3 receptor (Cavia porcellus), measured pKi is 7.43
